# Tested on: PAF-induced hypotension
# measurement.description: Inhibitory activity against PAF-induced hypotension in rats
# Format: in vivo, rat (male Spraque-Dawley)
# run.conditions: 1 mg/kg i.v.; after 60 min; PAF 0.3 μg/kg i.v.
# Restoration rate annotations

>  <compound>
CCCCCCCCCCCCCCCCCCNC(=O)OCC(COC(=O)N(Cc1cccc[n+]1C)C(C)=O)OCC (stereo not drawn)

>  <unit.of.measurement>
%

>  <Restoration rate>
77

$$$$
>  <compound>
CCCCCCCCCCCCCCCCCCNC(=O)OCC(COC(=O)N(Cc1cccc[n+]1CC)C(C)=O)OC (stereo not drawn)

>  <unit.of.measurement>
%

>  <Restoration rate>
100

$$$$
>  <compound>
CCCCCCCCCCCCCCCCCCNC(=O)OCC(COC(=O)N(Cc1csc[n+]1CC)C(C)=O)OC.[I-] (stereo not drawn)

>  <unit.of.measurement>
%

>  <Restoration rate>
100

$$$$
>  <compound>
CCCCCCCCCCCCCCCCCCNC(=O)OCC(COC(=O)N(Cc1scc[n+]1CC)C(C)=O)OC.[I-] (stereo not drawn)

>  <unit.of.measurement>
%

>  <Restoration rate>
100

$$$$
>  <compound>
CCCCCCCCCCCCCCCCCCNC(=O)OCC(COC(=O)N(Cc1cccc[n+]1CC)C(C)=O)OCC (stereo not drawn)

>  <unit.of.measurement>
%

>  <Restoration rate>
100

$$$$
>  <compound>
CCCCCCCCCCCCCCCCCCNC(=O)OCC(COC(=O)N(Cc1scc[n+]1C)C(C)=O)OC.[I-] (stereo not drawn)

>  <unit.of.measurement>
%

>  <Restoration rate>
100

$$$$

====

# System: PAF-induced hypotension
# measurement.description: Restoring activity against PAF-induced hypotension
# Format: in vivo, rat (male S.D.)
# run.conditions: 0.5 mg/kg i.v., 3 min after PAF 1 μg/kg i.v.; 1 min after test drug
Structures can show the parent of a compound that is named as a salt.
# Restoration rate annotations

>  <compound>
CCCCCCCCCCCCCCCCCCOCC(COC(=O)N(CC[N+](C)(C)C)C(C)=O)OC(C)=O (centres unmarked)

>  <unit.of.measurement>
%

>  <Restoration rate>
48

$$$$
>  <compound>
CCCCCCCCCCCCCCCCCCNC(=O)OCC(COC(=O)N(CC[N+]1(C)CCCC1)C(=O)OC)OC (centres unmarked)

>  <unit.of.measurement>
%

>  <Restoration rate>
83

$$$$
>  <compound>
CCCCCCCCCCCCCCCCCCNC(=O)OCC(COC(=O)N(CC[N+]1(C)CCCC1)C(C)=O)OC (centres unmarked) [Example 35, hydrochloride]

>  <unit.of.measurement>
%

>  <Restoration rate>
73

$$$$
>  <compound>
CCCCCCCCCCCCCCCCCCOCC(CN1CC(=O)N(CC[n+]2ccsc2)C1=O)OC(C)=O (centres unmarked)

>  <unit.of.measurement>
%

>  <Restoration rate>
77

$$$$
>  <compound>
CCCCCCCCCCCCCCCCCCOCC(CN1CC(=O)N(CC[N+](C)(C)C)C1=O)OC(C)=O (centres unmarked)

>  <unit.of.measurement>
%

>  <Restoration rate>
77

$$$$

====

# System: PAF-induced death
# measurement.description: Prevention activity against PAF-induced death in mice
# Assay type: in vivo, mouse (male Jc1-ICR)
# run.conditions: Table 4; 1.0 mg/kg i.v.; control 24%
# Protocol: Prevention activity against PAF-induced death in mice The test drug was investigated for the preventive activity against shock death to be brought about within 30 min. after 50 μg/kg of PAF in the form of 0.1 ml/kg physiological saline solution was given intravenously to a male Jc1-ICR mouse. The test drug was administered intravenously 5 min. before the injection of PAF. […]
Counter-ions that a name gives are not always drawn.

>  <molecule>
CCCCCCCCCCCCCCCCCCNC(=O)OCC(COC(=O)N(CC[N+]1(C)CCCC1)C(C)=O)OC (stereo not drawn) [Example 35, hydrochloride]

>  <unit.of.measurement>
%

>  <Survival rate>
80

$$$$
>  <molecule>
CCCCCCCCCCCCCCCCCCNC(=O)OCC(COC(=O)N(CC[N+](C)(C)C)C(C)=O)OC (stereo not drawn) [Example 25]

>  <unit.of.measurement>
%

>  <Survival rate>
94

$$$$
>  <molecule>
CCCCCCCCCCCCCCCCCCOCC(CN1CC(=O)N(CC[n+]2ccsc2)C1=O)OC(C)=O (stereo not drawn) [Example 92]

>  <unit.of.measurement>
%

>  <Survival rate>
100

$$$$
>  <molecule>
CCCCCCCCCCCCCCCCCCNC(=O)OCC(COC(=O)N(CC1CCC[N+]1(C)CC)C(C)=O)OC (stereo not drawn) [Example 45]

>  <unit.of.measurement>
%

>  <Survival rate>
100

$$$$
>  <molecule>
CCCCCCCCCCCCCCCCCCOCC(CN1CC(=O)N(CC[N+](C)(C)C)C1=O)OC(C)=O (stereo not drawn) [Example 91]

>  <unit.of.measurement>
%

>  <Survival rate>
100

$$$$
>  <molecule>
CCCCCCCCCCCCCCCCCCNC(=O)OCC(COC(=O)N(CC[N+]1(C)CCCC1)C(=O)OC)OC (stereo not drawn) [Example 43]

>  <unit.of.measurement>
%

>  <Survival rate>
100

$$$$
